system: SIK; construct: gene SIK1; details: Compound Concentration (nM):1000;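 further: KINOMEscan scanMAX binding as percent activity remaining versus control; lower means stronger binding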
Property Label: Percent Control (%)

CN1CCN(C(=O)c2ccc(NC(=O)Nc3ccc(N(C)c4ccnc(Nc5ccc(CS(C)(=O)=O)cc5)n4)cc3)cc2)CC1.Cl [GW830263A]: 92
CC1=C(C(=O)Nc2ccc3[nH]ncc3c2)C(c2ccc3ccccc3c2)CC(=O)N1 (centres unmarked) [GSK270822A]: 100
C/C(Nc1ccc(S(N)(=O)=O)cc1)=C1/C(=O)Nc2ccccc21 [GW335962X]: 100
NS(=O)(=O)c1ccc(N/N=C2\C(=O)Nc3ccc(C(=O)NCCc4c[nH]cn4)cc32)cc1 [GW300660X]: 100
COc1cc2ncnc(Nc3ccc4c(cnn4Cc4ccccc4)c3)c2cc1OC.Cl [GW282449A]: 100
COc1cc(/C=N/Nc2ncnc3[nH]ncc23)ccc1O [GW578748X]: 87
COc1ccc2c(-c3ccnc(Nc4cccc(OC(F)(F)F)c4)n3)cnn2n1 [GW810372X]: 100
NS(=O)(=O)c1ccc(Nc2ncc(-c3ccccc3)o2)cc1 [GW572399X]: 100
NS(=O)(=O)c1ccc(N/N=C2\C(=O)Nc3ccc(Cl)cc32)cc1 [GW280670X]: 100
Cl.O=S1CCN(Cc2ccc(-c3ccc4ncnc(Nc5ccc(OCc6ccccc6)c(F)c5)c4c3)o2)CC1 [GW576924A]: 100
COc1cccc(-n2ncc3c(N/N=C/c4ccncc4)ncnc32)c1 [GW784752X]: 100
COc1ccc2cc(-c3c(-c4ccncc4)nc(-c4ccc(S(C)(=O)=O)cc4C)n3C)ccc2c1 [SB-633825]: 96
Cl.c1ccc(Cc2nc3ccc(Nc4ncnc5ccccc45)cc3[nH]2)cc1 [GR269666A]: 100
COc1ccc2[nH]c3c4[nH]c5ccc(OC)cc5c4c4c(c3c2c1)C(=O)NC4=O [GW296115X]: 67
CCS(=O)(=O)c1ccc(OC)c(Nc2ncc(-c3cccc(F)c3)o2)c1 [GW621970X]: 100
NS(=O)(=O)c1ccc(N/N=C2\C(=O)Nc3ccc(-c4cnco4)cc32)cc1 [GW276655]: 77
COc1ccccc1-c1cc(/C=C2\C(=O)Nc3ncc(Br)cc32)cc(Br)c1O [GW442130X]: 100

----------
Recorded Percent Control by entry
test system: EPHA5; details: Compound Concentration (nM):1000
Property Label: Percent Control (%)

COc1cc(C=NNc2ncnc3c2cnn3-c2ccccc2)ccc1O [GW513184X]: 83
COc1ccccc1-c1cc(/C=C2\C(=O)Nc3ncc(Br)cc32)cc(Br)c1O [GW442130X]: 100
CC1=C(C(=O)Nc2ccc3[nH]ncc3c2)C(c2ccc(Cl)c(Cl)c2)CC(=O)N1 (stereo not shown) [GSK299115A]: 95
NS(=O)(=O)c1ccc(N/N=C2\C(=O)Nc3ccc(Cl)cc32)cc1 [GW280670X]: 100
Cl.O=S1CCN(Cc2ccc(-c3ccc4ncnc(Nc5ccc(OCc6ccccc6)c(F)c5)c4c3)o2)CC1 [GW576924A]: 100
Cl.O=C(Nc1ccc(Oc2ccc3[nH]c(NC(=O)c4ccco4)nc3c2)cc1)Nc1cc(C(F)(F)F)ccc1F [GW683134A]: 53
CN(C)c1cc2c(Nc3ccc4c(cnn4Cc4ccccc4)c3)ncnc2cn1 [GW282974X]: 33
CN1CCN(C(=O)c2ccc(NC(=O)Nc3ccc(N(C)c4ccnc(Nc5ccc(CS(C)(=O)=O)cc5)n4)cc3)cc2)CC1.Cl [GW830263A]: 99
CCn1c(-c2nonc2N)nc2c(C#CC(C)(C)O)nc(OCCNC)cc21.Cl [GSK949675]: 98
COc1ccc(COc2ccc(Cc3cnc(N)nc3N)cc2OC)cc1 [GW632580X]: 93
NS(=O)(=O)c1ccc(Nc2ncc(-c3ccccc3)o2)cc1 [GW572399X]: 100
COc1cc(/C=N/Nc2ncnc3[nH]ncc23)ccc1O [GW578748X]: 90
Cl.O=C(Nc1ccc(Oc2ccc3[nH]c(NC(=O)c4ccccc4)nc3c2)cc1)Nc1cc(C(F)(F)F)ccc1F [GW709042A]: 90
CN(C)CCNC(=O)Nc1ccc(N(C)c2ccnc(Nc3ccc(CS(C)(=O)=O)cc3)n2)cc1.Cl [GW830900A]: 90
Nc1ncnc2occ(-c3ccc(NC(=O)Nc4cc(C(F)(F)F)ccc4F)cc3)c12 [GW770249X]: 15
Cl.O=C(O[C@H]1CN[C@H](C#Cc2cc3ncnc(Nc4ccc5c(cnn5Cc5ccccc5)c4)c3s2)C1)N1CCOCC1 [GSK200398A]: 100
Cc1cc(O)cc(C)c1/C=C/c1cncc(C(N)=O)c1 [GW435821X]: 88
COC(=O)Nc1nc2ccc(Oc3ccc(NC(=O)Nc4cc(C(F)(F)F)ccc4F)cc3)cc2s1.Cl [GW693917A]: 52
COc1ccc2cc(-c3c(-c4ccncc4)nc(-c4ccc(S(C)(=O)=O)cc4C)n3C)ccc2c1 [SB-633825]: 99
